Tested on: P. aeruginosa PΔ3-Pore cells
Assay: LC–MS quantification of intracellular accumulation, PΔ3-Pore;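 further: slope of accumulation versus external concentration fitted as a line through zero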
Settings: 40 min incubation, 10-80 µM
Where a name gives a salt, the structure may show the parent alone.
experimental_readout: Concentration slopes of accumulation, PΔ3-Pore_40min

compound | value_observed
O=C1NC[C@@H](CCC2CCCCC2)N[C@H]1Cc1cc(F)cc(F)c1 [OU-0032508] | 21.97
N[C@@H](CC(=O)N1CCn2c(nnc2C(F)(F)F)C1)Cc1cc(F)c(F)cc1F [OU-0000833, Sitagliptin Monophosphate Monohydrate] | 4.28
CC(C)(C)OC(=O)N1[C@H](CCC2CCCCC2)CNC(=O)[C@@H]1Cc1cc(F)cc(F)c1 [OU-0032510] | 28.27
CN1C[C@H](C(=O)N[C@]2(C)O[C@@]3(O)[C@@H]4CCCN4C(=O)[C@H](Cc4ccccc4)N3C2=O)C=C2c3cccc4[nH]cc(c34)C[C@H]21 [OU-0000834, Ergotamine Tartrate] | 15.58
O=C(O)c1cn(C2CC2)c2cc(N3CCNCC3)c(F)cc2c1=O [OU-0001036, Ciprofloxacin] | 2.77
CN1CCN(c2cc3c(cc2F)c(=O)c(C(=O)O)cn3-c2ccc(F)cc2)CC1 [OU-0000624, DIFLOXACIN] | 8.21
CCn1cc(C(=O)O)c(=O)c2cc3c(cc21)OCO3 [OU-0000621, OXOLINIC ACID] | 6.70
CCn1cc(C(=O)O)c(=O)c2cc(F)c(N3CCN(C)CC3)cc21 [OU-0000619, PEFLOXACINE MESYLATE] | 39.09
COc1c(N2CCNC(C)C2)c(F)cc2c(=O)c(C(=O)O)cn(C3CC3)c12 (stereo not drawn) [OU-0000623, GATIFLOXACIN] | 5.45
C[C@@H]1CN(c2c(F)c(N)c3c(=O)c(C(=O)O)cn(C4CC4)c3c2F)C[C@H](C)N1 [OU-0000617, SPARFLOXACIN] | 10.98
Cc1oc(=O)oc1CN1CCN(c2cc3c(cc2F)c(=O)c(C(=O)O)c2n3C(C)S2)CC1 (stereo not drawn) [OU-0000631, PRULIFLOXACIN] | 5.20
CC1CN=C(c2ccc(NC(=O)Nc3ccc(C4=NCCN4)cc3)cc2)N1.Cl (stereo not drawn) [OU-0001395] | 4.42
CC1CCc2c(N3CCC(O)CC3)c(F)cc3c(=O)c(C(=O)O)cn1c23 (stereo not drawn) [OU-0000628, nadifloxacin] | 19.09
CCn1cc(C(=O)O)c(=O)c2cc(F)c(N3CCNCC3)cc21 [OU-0000789, Norfloxacin] | 33.05
CCOC(=O)NC(=S)Nc1ccccc1NC(=S)NC(=O)OCC [OU-0000837, Thiophanate] | 13.42
